For each record, write down the corresponding pKd.
test system: T1, purified recombinant human Napi2b antigen consisting of Napi2b-extracellular-loop2 expressed as … (human, UniProt O95436 234-362, limits assumed)
T1 construct: Expressed in Expi-HEK293 cells; also called immobilized human NaPi2B; not shown: Fc part; 6-His tag
T1 sequence: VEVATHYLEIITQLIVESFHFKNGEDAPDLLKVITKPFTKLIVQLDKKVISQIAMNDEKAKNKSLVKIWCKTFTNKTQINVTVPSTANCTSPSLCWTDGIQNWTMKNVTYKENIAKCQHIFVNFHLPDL
test details: ELISA on the isolated immobilized protein; table column Binding KD (nmol/L), ELISA
Numbers only, as −log10 of the molar value.

Solved cases (3 shown):
binder	pKd
AV-18 antibody (antibody, human IgG1, kappa, L234A L235A, V domains shown) VH: EVQLVQSGAEVVKPGASVKMSCKASGYTFTGYIIHWVKQAPGQGLEWIGAIYPGSGATSYKQKFRGRATLTADTSTSTVYMELSSLRSEDSAVYYCARGETARATFAYWGQGTLVTVSS VL: DIQMTQSPSSLSASVGDRVTITCSASQDIGNFLNWYQQKPGKTVKVLIYYTSSLYSGVPSRFSGSGSGTDYTLTISSLQPEDFATYYCQQYSKLPLTFGQGTKLELKR	10.00
AV-15 antibody (antibody, human IgG1, kappa, L234A L235A, V domains shown) VH: EVQLVQSGAEVVKPGASVKMSCKASGYTFTGYNIHWVKQAPGQGLEWIGAIYPGNGDTSYKQKFRGRATLTADTSTSTVYMELSSLRSEDSAVYYCARGETARATFAYWGQGTLVTVSS VL: DIQMTQSPSSLSASVGDRVTITCSASQDIGKFLNWYQQKPGKTVKVLIYYSSSLYSGVPSRFSGSGSGTDYTLTISSLQPEDFATYYCQQYSKVPLTFGQGTKLELKR	9.98
AV-21 antibody (antibody, human IgG1, kappa, L234A L235A, V domains shown) VH: EVQLVQSGAEVVKPGASVKMSCKASGYTFTGQIIHWVKQAPGQGLEWIGAISPGNSGTSYKQKFRGRATLTADTSTSTVYMELSSLRSEDSAVYYCARGETARATFAYWGQGTLVTVSS VL: DIQMTQSPSSLSASVGDRVTITCSASQDIGNFLNWYQQKPGKTVKVLIYYTSSLYSGVPSRFSGSGSGTDYTLTISSLQPEDFATYYCQQYSKLPLTFGQGTKLELKR	10.08

As a next step, examine the binder that follows.
Sample parental mAb (parental anti-NaPi2b antibody) (antibody, human IgG1, kappa, L234A L235A, V domains shown, also called parental antibody) VH: EVQLVQSGAEVVKPGASVKMSCKASGYTFTGYNIHWVKQAPGQGLEWIGAIYPGNGDTSYKQKFRGRATLTADTSTSTVYMELSSLRSEDSAVYYCARGETARATFAYWGQGTLVTVSS VL: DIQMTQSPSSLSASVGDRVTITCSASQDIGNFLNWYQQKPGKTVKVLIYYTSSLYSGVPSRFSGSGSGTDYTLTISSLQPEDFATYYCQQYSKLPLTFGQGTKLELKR ; pKd observed: 9.83
